experiment: qHTS assay for re-activators of p53 using a Luc reporter: Hit Validation; conditions: p53-responsive luciferase reporter cells, luminescence, H1299 line expressing heat-sensitive Ala138Val p53; series mostly up to 46.1 µM; further: nearly all actives have a fitted effect of over 75% in size
Inconclusive results are not listed. Activity calls are given as the source filed them. The call rests on the fitted dose curve; in most records, active means well fitted activation curve with a large enough effect; inconclusive means small, poorly fitted or top-dose-only effect; inactive means no such curve, though single readings can be large or run the other way.
# valid calls are y for active, n for inactive; nothing else

The examples below pair each entry with its known result.
Cc1cc(C(=O)N2CCN(c3ccccc3Cl)CC2)c(C)o1 :: y
O=C(NC(=S)Nc1ccccc1Br)C1CCCCC1 :: y
O=C(Oc1ccccc1/C=C\C(=O)c1cc2ccccc2o1)c1cccc(F)c1 :: y
Clc1ccc(-c2nnc(N3CCCC3)nn2)cc1 :: y
c1ccc2cc3c(NCCN4CCOCC4)ccnc3cc2c1 :: n

Now let's try a different one.
Query: Identify the outcome logged in this assay for the compound shown: `O=c1[nH]c(N/N=C/c2ccc(O)cc2)nc2ccccc12`
Result: y
